Test system: HL-60(TB)
Experiment: Growth inhibition of human HL-60(TB) cells assessed as cell growth at 10 uM incubated for 48 hrs by sulforhodamine B assay relative to control
Type: functional
Details: HL-60, 48 h, read-out: Activity
I'd be grateful if you could share measured growth at 10 µM for these entries.
Numbers only here, please. The scale is %.

Please indicate growth at 10 µM recorded for CCCCn1c(=O)c(C2CNC(=O)c3ccccc3N2)cc2ccc(Cl)cc21 (stereo unspecified)
107

Please indicate growth at 10 µM recorded for O=C1CC(c2cc3ccc4ccccc4c3[nH]c2=O)Nc2ccccc21 (stereo unspecified)
100

Please indicate growth at 10 µM recorded for CCCCn1c(=O)c(C2CNC(=O)c3ccccc3N2)cc2ccccc21 (stereo unspecified)
96.7

Please indicate growth at 10 µM recorded for Cc1ccc2[nH]c(=O)c(C3CNC(=O)c4ccccc4N3)cc2c1 (stereo unspecified)
107

Please indicate growth at 10 µM recorded for CCCCOc1nc2ccccc2cc1C1CNC(=O)c2ccccc2N1 (stereo unspecified)
-8.72

Please indicate growth at 10 µM recorded for O=C1NCC(c2cc3ccccc3[nH]c2=O)Nc2ccccc21 (stereo unspecified)
95.7

Please indicate growth at 10 µM recorded for CCCCOc1nc2c(C)cccc2cc1C1CNC(=O)c2ccccc2N1 (stereo unspecified)
26.2

Please indicate growth at 10 µM recorded for Cc1cccc2cc(C3CNC(=O)c4ccccc4N3)c(=O)[nH]c12 (stereo unspecified)
116

Please indicate growth at 10 µM recorded for O=C1NCC(c2cc3ccc(Cl)cc3[nH]c2=O)Nc2ccccc21 (stereo unspecified)
111

Please indicate growth at 10 µM recorded for O=C1NCC(c2cc3ccc4ccccc4c3[nH]c2=O)Nc2ccccc21 (stereo unspecified)
86.7

Please indicate growth at 10 µM recorded for O=C1CC(c2cc3ccccc3[nH]c2=O)Nc2ccccc21 (stereo unspecified)
98

---

Tested on: NCI/ADR-RES
Assay: Growth inhibition of human NCI/ADR-RES cells assessed as cell growth at 10 uM incubated for 48 hrs by sulforhodamine B assay relative to control
Assay type: functional
Settings: read-out: Activity
I'd be grateful if you could share measured growth at 10 µM for these entries.

Please indicate growth at 10 µM recorded for CCCCn1c(=O)c(C2CNC(=O)c3ccccc3N2)cc2ccc(Cl)cc21 (configuration not stated)
101%

Please indicate growth at 10 µM recorded for O=C1NCC(c2cc3ccccc3[nH]c2=O)Nc2ccccc21 (configuration not stated)
111%

Please indicate growth at 10 µM recorded for O=C1NCC(c2cc3ccc4ccccc4c3[nH]c2=O)Nc2ccccc21 (configuration not stated)
99%

Please indicate growth at 10 µM recorded for Cc1cccc2cc(C3CNC(=O)c4ccccc4N3)c(=O)[nH]c12 (configuration not stated)
103%

Please indicate growth at 10 µM recorded for O=C1NCC(c2cc3ccc(Cl)cc3[nH]c2=O)Nc2ccccc21 (configuration not stated)
99.4%

Please indicate growth at 10 µM recorded for CCCCOc1nc2ccccc2cc1C1CNC(=O)c2ccccc2N1 (configuration not stated)
3.84%

Please indicate growth at 10 µM recorded for O=C1CC(c2cc3ccccc3[nH]c2=O)Nc2ccccc21 (configuration not stated)
108%

Please indicate growth at 10 µM recorded for CCCCOc1nc2ccc(OC)cc2cc1C1CNC(=O)c2ccccc2N1 (configuration not stated)
109%

Please indicate growth at 10 µM recorded for CCCCn1c(=O)c(C2CNC(=O)c3ccccc3N2)cc2ccccc21 (configuration not stated)
100%

Please indicate growth at 10 µM recorded for Cc1ccc2[nH]c(=O)c(C3CNC(=O)c4ccccc4N3)cc2c1 (configuration not stated)
108%

Please indicate growth at 10 µM recorded for O=C1CC(c2cc3ccc4ccccc4c3[nH]c2=O)Nc2ccccc21 (configuration not stated)
108%

Please indicate growth at 10 µM recorded for CCCCOc1nc2c(C)cccc2cc1C1CNC(=O)c2ccccc2N1 (configuration not stated)
51.3%

---

I'd be grateful if you could share measured growth at 10 µM for these entries.
Test system: MCF7
Test: Growth inhibition of human MCF7 cells assessed as cell growth at 10 uM incubated for 48 hrs by sulforhodamine B assay relative to control
Assay type: functional
Conditions: MCF7, 48 h, read-out: Activity
Numbers only here, please. The scale is %.

Please indicate growth at 10 µM recorded for O=C1NCC(c2cc3ccccc3[nH]c2=O)Nc2ccccc21 (stereo unspecified)
103

Please indicate growth at 10 µM recorded for CCCCOc1nc2c(C)cccc2cc1C1CNC(=O)c2ccccc2N1 (stereo unspecified)
15.8

Please indicate growth at 10 µM recorded for O=C1CC(c2cc3ccc4ccccc4c3[nH]c2=O)Nc2ccccc21 (stereo unspecified)
76.2

Please indicate growth at 10 µM recorded for CCCCOc1nc2ccccc2cc1C1CNC(=O)c2ccccc2N1 (stereo unspecified)
21.2

Please indicate growth at 10 µM recorded for Cc1cccc2cc(C3CNC(=O)c4ccccc4N3)c(=O)[nH]c12 (stereo unspecified)
98.8

Please indicate growth at 10 µM recorded for Cc1ccc2[nH]c(=O)c(C3CNC(=O)c4ccccc4N3)cc2c1 (stereo unspecified)
102

Please indicate growth at 10 µM recorded for O=C1CC(c2cc3ccccc3[nH]c2=O)Nc2ccccc21 (stereo unspecified)
102

Please indicate growth at 10 µM recorded for O=C1NCC(c2cc3ccc4ccccc4c3[nH]c2=O)Nc2ccccc21 (stereo unspecified)
33.4

Please indicate growth at 10 µM recorded for CCCCn1c(=O)c(C2CNC(=O)c3ccccc3N2)cc2ccc(Cl)cc21 (stereo unspecified)
89.1

Please indicate growth at 10 µM recorded for CCCCn1c(=O)c(C2CNC(=O)c3ccccc3N2)cc2ccccc21 (stereo unspecified)
99.6

Please indicate growth at 10 µM recorded for O=C1NCC(c2cc3ccc(Cl)cc3[nH]c2=O)Nc2ccccc21 (stereo unspecified)
97.4

---

Test system: SNB-75
Assay: Growth inhibition of human SNB75 cells assessed as cell growth at 10 uM incubated for 48 hrs by sulforhodamine B assay relative to control
Format: functional
Conditions: SNB-75, 48 h, read-out: Activity
Rule: growth at 10 µM below 90% gives 1, anything at or above gives -1.

In the record for O=C1NCC(c2cc3ccc4ccccc4c3[nH]c2=O)Nc2ccccc21 (configuration not stated) , is growth at 10 µM less than 90%?
-1

In the record for Cc1ccc2[nH]c(=O)c(C3CNC(=O)c4ccccc4N3)cc2c1 (configuration not stated) , is growth at 10 µM less than 90%?
-1

In the record for CCCCOc1nc2c(C)cccc2cc1C1CNC(=O)c2ccccc2N1 (configuration not stated) , is growth at 10 µM less than 90%?
1

In the record for CCCCn1c(=O)c(C2CNC(=O)c3ccccc3N2)cc2ccccc21 (configuration not stated) , is growth at 10 µM less than 90%?
1

In the record for O=C1NCC(c2cc3ccc(Cl)cc3[nH]c2=O)Nc2ccccc21 (configuration not stated) , is growth at 10 µM less than 90%?
1

In the record for O=C1CC(c2cc3ccc4ccccc4c3[nH]c2=O)Nc2ccccc21 (configuration not stated) , is growth at 10 µM less than 90%?
-1

In the record for CCCCOc1nc2ccccc2cc1C1CNC(=O)c2ccccc2N1 (configuration not stated) , is growth at 10 µM less than 90%?
1

In the record for Cc1cccc2cc(C3CNC(=O)c4ccccc4N3)c(=O)[nH]c12 (configuration not stated) , is growth at 10 µM less than 90%?
1

In the record for O=C1NCC(c2cc3ccccc3[nH]c2=O)Nc2ccccc21 (configuration not stated) , is growth at 10 µM less than 90%?
-1

---

System: RPMI-8226
Test: Growth inhibition of human RPMI8226 cells assessed as cell growth at 10 uM incubated for 48 hrs by sulforhodamine B assay relative to control
Assay type: functional
Conditions: RPMI-8226, 48 h, read-out: Activity
measure: growth at 10 µM
Express your answer as a number followed by its unit.

Please indicate growth at 10 µM recorded for CCCCOc1nc2ccccc2cc1C1CNC(=O)c2ccccc2N1 (configuration not stated)
25.6%

Please indicate growth at 10 µM recorded for CCCCn1c(=O)c(C2CNC(=O)c3ccccc3N2)cc2ccc(Cl)cc21 (configuration not stated)
103%

Please indicate growth at 10 µM recorded for O=C1NCC(c2cc3ccc4ccccc4c3[nH]c2=O)Nc2ccccc21 (configuration not stated)
109%

Please indicate growth at 10 µM recorded for CCCCOc1nc2ccc(OC)cc2cc1C1CNC(=O)c2ccccc2N1 (configuration not stated)
88.9%

Please indicate growth at 10 µM recorded for O=C1CC(c2cc3ccccc3[nH]c2=O)Nc2ccccc21 (configuration not stated)
107%

Please indicate growth at 10 µM recorded for O=C1CC(c2cc3ccc4ccccc4c3[nH]c2=O)Nc2ccccc21 (configuration not stated)
99.7%

Please indicate growth at 10 µM recorded for O=C1NCC(c2cc3ccc(Cl)cc3[nH]c2=O)Nc2ccccc21 (configuration not stated)
119%

Please indicate growth at 10 µM recorded for CCCCOc1nc2c(C)cccc2cc1C1CNC(=O)c2ccccc2N1 (configuration not stated)
57.5%

Please indicate growth at 10 µM recorded for O=C1NCC(c2cc3ccccc3[nH]c2=O)Nc2ccccc21 (configuration not stated)
106%

Please indicate growth at 10 µM recorded for Cc1cccc2cc(C3CNC(=O)c4ccccc4N3)c(=O)[nH]c12 (configuration not stated)
114%

Please indicate growth at 10 µM recorded for Cc1ccc2[nH]c(=O)c(C3CNC(=O)c4ccccc4N3)cc2c1 (configuration not stated)
102%

Please indicate growth at 10 µM recorded for CCCCn1c(=O)c(C2CNC(=O)c3ccccc3N2)cc2ccccc21 (configuration not stated)
109%
